- targetOfAssay: human Cereblon WT GST-tagged protein (Homo sapiens)
- Construct: purchased CISBIO 64BDCRBNPEH
- experimentalProtocol: CRBN-binding affinity by HTRF (CEREBLON BINDING kit)
- conditionParameters: HTRF inhibitory activity, CEREBLON BINDING kit; read-out: HTRF IC50
Listing of recorded IC50 by entry.

Looking up O=C1CCC(N2Cc3cc(CN4CC=C(c5cccs5)CC4)ccc3C2=O)C(=O)N1 (centres unmarked) , I found its IC50 recorded as < 0.5 µM

Record summary for O=C1CCC(N2Cc3cc(CN4CCN(c5cc(Cl)ccc5Cl)CC4)ccc3C2=O)C(=O)N1 (centres unmarked) : reported IC50 = 0.5 to 1 µM

Reported IC50 of O=C1CCC(N2Cc3cc(CN4CCN(c5cc(Cl)c(Cl)cn5)CC4)ccc3C2=O)C(=O)N1 (centres unmarked) : 0.5 to 1 µM

Entry O=C1CCC(N2Cc3cc(CN4CCN(c5ccnc(Cl)c5)CC4)ccc3C2=O)C(=O)N1 (centres unmarked) , IC50 reported as < 0.5 µM

Recorded IC50 (compound Cc1nc(N2CCN(Cc3ccc4c(c3)C(=O)N(C3CCC(=O)NC3=O)C4=O)CC2)c2c3c(sc2n1)CCCC3 (centres unmarked) ): 1 to 1.5 µM

Lab note: measured IC50 of O=C1CCC(N2Cc3cc(CN4CCN(c5noc6cc(F)ccc56)CC4)ccc3C2=O)C(=O)N1 (centres unmarked) was 0.5 to 1 µM

Entry O=C1CCC(N2Cc3cc(CN4CCC(c5ccc(F)cc5)CC4)ccc3C2=O)C(=O)N1 (centres unmarked) — recorded IC50 = 0.5 to 1 µM

// recorded IC50 for Cc1nc(C2=CCN(Cc3ccc4c(c3)C(=O)N(C3CCC(=O)NC3=O)C4=O)CC2)c2c3c(sc2n1)CCCC3 (centres unmarked) : 1.5 to 1.9 µM

---

Catalogue of IC50 readings, one per entry.
- targetOfAssay: human Cereblon WT GST-tagged protein (Homo sapiens, UniProt Q96SW2)
- Construct: purchased CISBIO 64BDCRBNPEH
- Sequence (Q96SW2 whole entry): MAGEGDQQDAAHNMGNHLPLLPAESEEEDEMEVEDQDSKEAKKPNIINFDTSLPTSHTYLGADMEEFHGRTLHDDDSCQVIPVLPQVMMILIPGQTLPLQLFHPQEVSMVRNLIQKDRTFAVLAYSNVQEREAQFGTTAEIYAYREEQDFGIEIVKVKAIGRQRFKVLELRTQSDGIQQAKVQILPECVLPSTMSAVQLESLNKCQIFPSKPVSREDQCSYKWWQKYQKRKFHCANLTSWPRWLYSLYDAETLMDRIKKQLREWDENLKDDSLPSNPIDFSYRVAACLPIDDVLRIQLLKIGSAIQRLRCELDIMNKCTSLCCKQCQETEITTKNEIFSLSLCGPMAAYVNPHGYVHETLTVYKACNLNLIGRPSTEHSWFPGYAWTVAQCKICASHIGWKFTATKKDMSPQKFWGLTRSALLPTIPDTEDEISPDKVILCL
- experimentalProtocol: CRBN-binding affinity by HTRF (CEREBLON BINDING kit)
- conditionParameters: HTRF inhibitory activity, CEREBLON BINDING kit; read-out: HTRF IC50

Below, each entry is followed by its recorded IC50 result.
- O=C1CCC(N2Cc3cc(CN4CCN(c5ccnc(O)c5F)CC4)ccc3C2=O)C(=O)N1 (stereo not shown): 0.5 to 1 µM
- O=C1CCC(N2Cc3cc(CN4CCC(c5ncnc6sc7c(c56)CCCC7)CC4)ccc3C2=O)C(=O)N1 (stereo not shown): < 0.5 µM
- Cc1nc(C2=CCN(Cc3ccc4c(c3)CN(C3CCC(=O)NC3=O)C4=O)CC2)c2c3c(sc2n1)CCC3 (stereo not shown): < 0.5 µM
- O=C1CCC(N2Cc3cc(CN4CCN(c5ccc(Cl)nc5)CC4)ccc3C2=O)C(=O)N1 (stereo not shown): 0.5 to 1 µM
- COc1ccc(N2CCN(Cc3ccc4c(c3)CN(C3CCC(=O)NC3=O)C4=O)CC2)cc1 (stereo not shown): 1 to 1.5 µM
- O=C1CCC(N2Cc3cc(CN4CCN(c5nccc(Cl)c5Cl)CC4)ccc3C2=O)C(=O)N1 (stereo not shown): 0.5 to 1 µM

IC50 reading for O=C1CCC(N2Cc3cc(CN4CCN(c5ncncn5)CC4)ccc3C2=O)C(=O)N1 (stereo not shown) : 0.5 to 1 µM

Short answer for Cc1ccc(N2CCN(Cc3ccc4c(c3)CN(C3CCC(=O)NC3=O)C4=O)CC2)c(C)c1 (stereo not shown) : IC50 was 1 to 1.5 µM

Lab note: Cc1cscc1C1CCN(Cc2ccc3c(c2)CN(C2CCC(=O)NC2=O)C3=O)CC1 (stereo not shown) gave IC50 of 0.5 to 1 µM

For O=C1CCC(N2Cc3cc(CN4CCN(c5nc(N6CCC6)nc6c5SCC6)CC4)ccc3C2=O)C(=O)N1 (stereo not shown) the compound record lists IC50 as < 0.5 µM

The compound O=C1CCC(N2Cc3cc(CN4CCN(c5cc(Cl)cc(Cl)c5)CC4)ccc3C2=O)C(=O)N1 (stereo not shown) showed IC50 equal to 0.5 to 1 µM

Entry under test: O=C1CCC(N2Cc3cc(CN4CCC(c5cccc6c(F)cccc56)CC4)ccc3C2=O)C(=O)N1 (stereo not shown) . Its IC50 was 0.5 to 1 µM

So, Cc1cc2c(C3=CCN(Cc4ccc5c(c4)CN(C4CCC(=O)NC4=O)C5=O)CC3)ncnc2s1 (stereo not shown) ? Its IC50 was < 0.5 µM

IC50 recorded for this compound, O=C1CCC(N2Cc3cc(CN4CCN(c5cccc(Cl)n5)CC4)ccc3C2=O)C(=O)N1 (stereo not shown) , is 0.5 to 1 µM

IC50 reported for this compound O=C1CCC(N2Cc3cc(CN4CC=C(c5c[nH]c6ncccc56)CC4)ccc3C2=O)C(=O)N1 (stereo not shown) : < 0.5 µM

In plain terms, O=C1CCC(N2Cc3cc(CN4CCN(c5nc(Cl)nc6c5SCC6)CC4)ccc3C2=O)C(=O)N1 (stereo not shown) has a documented IC50 of 0.5 to 1 µM

---

Documented IC50 across a set of compounds
- Test system: NCI-H1975
- experimentalProtocol: Tumor cell proliferation inhibition (CellTiter-Meiluncell Luminescent Cell Viability Assay), NCI-H1975
- conditionParameters: Homo sapiens, NCI-H1975, 96 h, read-out: inhibitory activity (IC50, nM) against tumor cells proliferation, H1975

* Cc1cccc(N2CCN(Cc3ccc4c(c3)CN(C3CCC(=O)NC3=O)C4=O)CC2)c1 (centres unmarked) | 10 to 50 nM
* Cc1ccsc1C1=CCN(Cc2ccc3c(c2)CN(C2CCC(=O)NC2=O)C3=O)CC1 (centres unmarked) | 1 to 5 nM
* O=C1CCC(N2Cc3cc(CN4CC=C(c5ncnc6sccc56)CC4)ccc3C2=O)C(=O)N1 (centres unmarked) | 50 to 100 nM
* Cc1ccsc1C1=CCN(Cc2cc(F)c3c(c2)CN(C2CCC(=O)NC2=O)C3=O)CC1 (centres unmarked) | 10 to 50 nM
* O=C1CCC(N2Cc3cc(CN4CCN(c5cccc(Br)c5)CC4)ccc3C2=O)C(=O)N1 (centres unmarked) | 10 to 50 nM

The compound Cc1cc2c(C3=CCN(Cc4ccc5c(c4)CN(C4CCC(=O)NC4=O)C5=O)CC3)ncnc2s1 (centres unmarked) showed IC50 equal to 10 to 50 nM

Record summary for O=C1CCC(N2Cc3cc(CN4CCN(c5ccc(Br)cc5)CC4)ccc3C2=O)C(=O)N1 (centres unmarked) : reported IC50 = 100 to 500 nM

Recorded result, O=C1CCC(N2Cc3cc(CN4CC=C(c5nccc(Cl)c5Cl)CC4)ccc3C2=O)C(=O)N1 (centres unmarked) , IC50: 10 to 50 nM

---

- targetOfAssay: human Cereblon WT GST-tagged protein (Homo sapiens)
- Construct: purchased CISBIO 64BDCRBNPEH
- experimentalProtocol: CRBN-binding affinity by HTRF (CEREBLON BINDING kit)
- conditionParameters: read-out: HTRF IC50; HTRF inhibitory activity, CEREBLON BINDING kit
pIC50: −log10 of the molar value.
Measured pIC50, listed per entry.

* O=C1CCC(N2C(=O)c3ccc(CN4CCN(c5nc6c(c(N7CCOCC7)n5)SCC6)CC4)cc3C2=O)C(=O)N1 (centres unmarked) | 5.72 to 5.82

Would you kindly look at the next entry?
Consider O=C1CCC(N2Cc3cc(CN4CCN(c5ccc(Br)cc5)CC4)ccc3C2=O)C(=O)N1 (centres unmarked) . Its measured pIC50 is 6.00 to 6.30

---

Item-by-item account of IC50
- targetOfAssay: human Cereblon WT GST-tagged protein (Homo sapiens, UniProt Q96SW2)
- Construct: purchased CISBIO 64BDCRBNPEH
- experimentalProtocol: CRBN-binding affinity by HTRF (CEREBLON BINDING kit)
- conditionParameters: HTRF inhibitory activity, CEREBLON BINDING kit; read-out: HTRF IC50

Reference set, count: 3
• CC(C)c1cc2c(C3=CCN(Cc4ccc5c(c4)CN(C4CCC(=O)NC4=O)C5=O)CC3)ncnc2s1 (stereo not shown) = < 500 nM
• O=C1CCC(N2Cc3cc(CN4CCN(c5nc6c(c(N7CCNCC7)n5)SCC6)CC4)ccc3C2=O)C(=O)N1 (stereo not shown) = < 500 nM
• CCc1cnc(C2CCN(Cc3ccc4c(c3)CN(C3CCC(=O)NC3=O)C4=O)CC2)nc1 (stereo not shown) = 1000 to 1500 nM

Proceed to the following item.
// field: IC50; key: Cc1nc(C2CCN(Cc3ccc4c(c3)C(=O)N(C3CCC(=O)NC3=O)C4=O)CC2)c2c3c(sc2n1)CCC3 (stereo not shown) ; value = 1000 to 1500 nM

---

- System: CCRF-CEM
- experimentalProtocol: Tumor cell proliferation inhibition (CellTiter-Meiluncell Luminescent Cell Viability Assay), CCRF-CEM
- conditionParameters: Homo sapiens, 96 h, read-out: inhibitory activity (IC50, nM) against tumor cells proliferation, CCRF-CEM
readoutKind: IC50

Known results for compounds:
- O=C1CCC(N2Cc3cc(CN4CCC(c5noc6cc(F)ccc56)CC4)ccc3C2=O)C(=O)N1 (stereo not shown): 5 to 10 nM
- O=C1CCC(N2Cc3cc(CN4CCN(c5cc(F)cc(F)c5)CC4)ccc3C2=O)C(=O)N1 (stereo not shown): 5 to 10 nM
- O=C1CCC(N2Cc3cc(CN4CCC(c5ccccc5Cl)CC4)ccc3C2=O)C(=O)N1 (stereo not shown): 5 to 10 nM
- Cc1ccc(N2CCN(Cc3ccc4c(c3)CN(C3CCC(=O)NC3=O)C4=O)CC2)cc1 (stereo not shown): 5 to 10 nM
- O=C1CCC(N2Cc3cc(CN4CCN(c5ccc(Cl)c(Cl)c5)CC4)ccc3C2=O)C(=O)N1 (stereo not shown): 5 to 10 nM

The compound identified as COc1ccc(N2CCN(Cc3ccc4c(c3)CN(C3CCC(=O)NC3=O)C4=O)CC2)cc1 (stereo not shown) registered its IC50 at 100 to 500 nM

What the record says about O=C1CCC(N2Cc3cc(CN4CCN(c5ccc(F)cc5F)CC4)ccc3C2=O)C(=O)N1 (stereo not shown) : IC50 is 10 to 50 nM
